Biological target: soluble IGF-1 receptor (human) (UniProt P08069)
Test: phage ELISA
ratio over background strictly less than 20 = label 1. Otherwise label 0.

binder | class_label
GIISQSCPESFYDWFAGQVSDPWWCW [H2CA-4-G9-IGF] | label 1
GFREGNFYEWFQAQVT [E4D -4-H2-IR] | label 0
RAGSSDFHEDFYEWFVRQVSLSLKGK [H2CA-2-B9-IGFR] | label 1
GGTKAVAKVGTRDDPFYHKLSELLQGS [B6Hα-4-G8-IR] | label 1
GVRAMSFYDALVSVLGLGPSG [20E2B-1-A6-IGFR] | label 1
RGAVAGFHDQFYDWFDRQVSRVHKFG [H2CA-4-H9-IGFR] | label 1
FYDAIDQLVRGSARAGGTRD [R20α-3-20E2-IR] | label 0
LKDGFYDYFWQRLHLGS [NNRPγ-4-B11-IR] | label 1
GGTEVDFYRALERLVRGQLGL [20E2B-3-D8-IGFR] | label 1
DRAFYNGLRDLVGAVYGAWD [R20 -4-20C11-IR] | label 0
RLFYCGIQALGANLGYSGCV [R20 -4-20A12-IR] | label 0
FFYRCLSRLLGGQLGSRLGLSCIGD [20C-3-E4-IGFR] | label 1

Data provenance is patent WO2001072771A2.
